Data origin: ChEMBL document CHEMBL1201862

IC50 reference
# Target: Fatty acid synthase (Homo sapiens, UniProt P49327)
# Sequence (P49327 whole entry): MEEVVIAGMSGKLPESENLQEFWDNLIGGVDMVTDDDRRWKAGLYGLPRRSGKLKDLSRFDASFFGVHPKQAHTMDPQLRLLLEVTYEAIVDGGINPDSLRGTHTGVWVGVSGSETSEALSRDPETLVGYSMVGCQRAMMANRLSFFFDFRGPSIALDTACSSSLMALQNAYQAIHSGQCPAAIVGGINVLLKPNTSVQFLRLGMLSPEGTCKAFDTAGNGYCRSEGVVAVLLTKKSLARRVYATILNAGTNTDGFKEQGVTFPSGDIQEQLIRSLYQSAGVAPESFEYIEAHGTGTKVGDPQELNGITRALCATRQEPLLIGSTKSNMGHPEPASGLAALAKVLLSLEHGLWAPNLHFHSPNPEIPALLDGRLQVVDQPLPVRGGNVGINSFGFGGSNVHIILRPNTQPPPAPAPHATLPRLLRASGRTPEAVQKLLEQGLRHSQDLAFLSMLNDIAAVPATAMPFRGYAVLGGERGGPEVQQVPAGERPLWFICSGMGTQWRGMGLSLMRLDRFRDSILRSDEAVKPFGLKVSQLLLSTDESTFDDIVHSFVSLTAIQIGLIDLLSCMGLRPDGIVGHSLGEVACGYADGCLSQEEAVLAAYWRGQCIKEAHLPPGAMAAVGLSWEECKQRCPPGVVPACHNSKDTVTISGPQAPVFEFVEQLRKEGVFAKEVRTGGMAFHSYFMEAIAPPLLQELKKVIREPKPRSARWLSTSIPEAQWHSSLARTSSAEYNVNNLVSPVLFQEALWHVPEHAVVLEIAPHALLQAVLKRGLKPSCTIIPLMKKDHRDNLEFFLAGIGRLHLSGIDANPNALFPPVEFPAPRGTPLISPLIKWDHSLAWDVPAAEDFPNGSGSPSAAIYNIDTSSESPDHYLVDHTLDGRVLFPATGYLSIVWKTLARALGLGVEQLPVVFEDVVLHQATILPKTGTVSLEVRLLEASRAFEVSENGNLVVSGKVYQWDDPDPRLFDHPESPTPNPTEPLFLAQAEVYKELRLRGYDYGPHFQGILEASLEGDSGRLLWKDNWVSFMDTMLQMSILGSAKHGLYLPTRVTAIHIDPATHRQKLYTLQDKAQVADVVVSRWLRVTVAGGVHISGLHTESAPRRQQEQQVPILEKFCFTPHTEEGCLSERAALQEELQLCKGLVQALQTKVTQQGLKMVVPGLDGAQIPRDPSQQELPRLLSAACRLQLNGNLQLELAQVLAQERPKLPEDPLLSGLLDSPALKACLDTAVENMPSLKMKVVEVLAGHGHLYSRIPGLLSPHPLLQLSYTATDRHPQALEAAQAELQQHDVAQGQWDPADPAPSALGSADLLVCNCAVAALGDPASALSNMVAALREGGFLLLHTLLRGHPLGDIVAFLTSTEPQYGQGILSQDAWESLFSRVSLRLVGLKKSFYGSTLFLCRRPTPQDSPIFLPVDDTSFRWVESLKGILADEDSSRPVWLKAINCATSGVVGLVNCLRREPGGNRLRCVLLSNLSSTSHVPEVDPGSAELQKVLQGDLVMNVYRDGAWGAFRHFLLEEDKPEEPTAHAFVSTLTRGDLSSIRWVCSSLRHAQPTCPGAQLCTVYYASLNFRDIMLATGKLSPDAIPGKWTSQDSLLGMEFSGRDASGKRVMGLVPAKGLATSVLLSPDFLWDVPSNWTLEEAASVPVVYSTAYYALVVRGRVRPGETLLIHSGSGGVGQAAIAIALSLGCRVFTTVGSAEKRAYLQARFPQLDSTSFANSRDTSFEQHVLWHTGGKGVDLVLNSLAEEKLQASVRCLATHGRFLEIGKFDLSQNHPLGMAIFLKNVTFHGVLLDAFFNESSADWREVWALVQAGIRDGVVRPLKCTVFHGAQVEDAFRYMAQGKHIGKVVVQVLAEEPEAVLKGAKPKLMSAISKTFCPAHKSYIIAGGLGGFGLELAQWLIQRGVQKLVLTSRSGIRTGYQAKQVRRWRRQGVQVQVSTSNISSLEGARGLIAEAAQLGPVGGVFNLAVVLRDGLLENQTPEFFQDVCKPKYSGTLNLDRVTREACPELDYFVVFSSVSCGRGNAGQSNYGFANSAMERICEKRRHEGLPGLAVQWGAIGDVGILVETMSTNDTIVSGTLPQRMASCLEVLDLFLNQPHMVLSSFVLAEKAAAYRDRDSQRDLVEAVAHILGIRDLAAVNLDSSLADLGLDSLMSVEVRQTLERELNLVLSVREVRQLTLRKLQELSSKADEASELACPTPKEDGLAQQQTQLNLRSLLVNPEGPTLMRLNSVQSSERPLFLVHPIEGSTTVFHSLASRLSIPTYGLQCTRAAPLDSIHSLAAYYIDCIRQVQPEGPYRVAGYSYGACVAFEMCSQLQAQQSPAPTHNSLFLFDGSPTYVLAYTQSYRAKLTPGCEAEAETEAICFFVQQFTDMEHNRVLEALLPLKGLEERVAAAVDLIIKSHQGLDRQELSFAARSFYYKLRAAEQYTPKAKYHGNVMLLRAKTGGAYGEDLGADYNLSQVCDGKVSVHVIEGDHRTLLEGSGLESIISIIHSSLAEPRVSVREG
# Test details: inhibition of human FAS-TE enzyme activity – biochemical, endpoint fluorescence intensity, uHTS hits, dose response (AID 624327);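 also: fluorescence from hydrolysis of an O-methyl fluorescein acyl ester substrate by the enzyme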
# Assay type: functional
Calls of active or inactive are those of the source.

In the examples that follow, each entry is paired with its recorded IC50.
>>> result("Cc1nc2scc(-c3ccccc3)c2c(=O)o1")
"5.75 µM (active)"
>>> result("O=C(C1CC(c2ccc(Cl)c(Cl)c2)=NO1)N1CCC2(CC1)OCCO2 (stereo unspecified)")
"7.22 µM (active)"
>>> result("CC(C=Cc1ccccc1)=NNS(=O)(=O)c1ccc([N+](=O)[O-])cc1")
"9.36 µM (active)"

// returns reported IC50 for input O=C(C/C=N\OCc1ccc([N+](=O)[O-])cc1)Nc1ccc(Br)cc1 10.1 µM (active)

Entry Cc1ccc(C(=O)N/C(=C\c2cn(S(=O)(=O)N(C)C)c3ccccc23)C(=O)N2CCCC2)cc1 : reported IC50 = ? 1.58 µM (active)

Name the reported IC50 value associated with the molecule O=S(=O)(c1ccc(Cl)cc1)N1CCCC(c2nc(-c3ccc(F)cc3)no2)C1 (stereo unspecified) 5.59 µM (active)

====

# Target: Cytochrome P450 1A2 (Homo sapiens);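 also: PubChem cytochrome P450 panel assay, CYP1A2 panel member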
# Sequence (P05177 whole entry): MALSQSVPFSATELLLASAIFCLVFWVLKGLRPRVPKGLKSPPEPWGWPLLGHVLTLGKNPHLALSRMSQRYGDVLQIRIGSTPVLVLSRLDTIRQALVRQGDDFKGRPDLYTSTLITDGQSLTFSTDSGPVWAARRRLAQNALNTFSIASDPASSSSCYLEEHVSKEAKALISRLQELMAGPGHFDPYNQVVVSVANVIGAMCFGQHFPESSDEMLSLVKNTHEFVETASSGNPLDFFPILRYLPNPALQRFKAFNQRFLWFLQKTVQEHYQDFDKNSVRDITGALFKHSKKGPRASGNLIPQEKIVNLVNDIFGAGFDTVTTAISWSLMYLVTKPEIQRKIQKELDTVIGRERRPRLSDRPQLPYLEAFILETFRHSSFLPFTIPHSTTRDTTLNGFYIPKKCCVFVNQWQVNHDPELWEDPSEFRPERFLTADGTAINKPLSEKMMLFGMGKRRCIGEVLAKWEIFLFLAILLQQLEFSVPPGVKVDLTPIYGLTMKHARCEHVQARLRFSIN
AC50 listing for selected compounds.

Example entries and their recorded answers appear below.
>>> result("CCOc1ccc(CN(C(=O)c2oc3ccccc3c2C)C2CCS(=O)(=O)C2)cc1 (stereo unspecified)")
"14.1 µM (inconclusive)"
>>> result("CC(C)(C)C(=O)N1CCN(c2ccc([N+](=O)[O-])c(NCC3CCCO3)c2)CC1 (stereo unspecified)")
"14.1 µM (inconclusive)"
>>> result("O=C1Nc2ccc(F)cc2C12Nc1ccccc1-c1nnc(SCc3ccccc3F)nc1O2 (stereo unspecified)")
"10 µM (inconclusive)"
>>> result("CCS(=O)(=O)N1CCC(C(=O)NCCCN2CCN(c3ccccc3F)CC2)CC1")
"1.26 µM (inconclusive)"
>>> result("O=C(c1ccncc1)N1CCC2(CC1)CN(C(c1ccccc1)c1ccccc1)C2")
"15.8 µM (inconclusive)"

Next compound, AC50 to be filled in.
Report AC50 for COc1cc(C(=O)Nc2ccc3c(c2)OCCO3)c(-n2cnnn2)cc1OC tested on Cytochrome P450 1A2 (Homo sapiens). 2.51 µM (inconclusive)

====

Below: a set of entries, each annotated with reported AC50.
# Test details: loss of viability in HepG2 cells – cell-based, CellTiter-Glo, cherry-picked, cytotoxicity control for Shn3 inhibitor project, dose response (AID 624134)
# Assay type: functional
Active and inactive are the calls of the source.

I am curious: what AC50 value has been reported for COc1ccc(CC(N)c2csc(NC(=O)Nc3cccc(C(F)(F)F)c3)n2)cc1 (centres undefined) ? 11 µM (active)

What AC50 value was documented for this molecule, C[C@H]1CN=C(N(C)C)N1CC1CCC(C(C)(C)C)CC1 (some centres undefined) ? 41.5 µM (active)

Can you look up the measured AC50 of CCc1nc(N2CCN(C(C)=O)CC2)c2c3c(sc2n1)CC(C(C)(C)C)CC3 (centres undefined) for me? 58.6 µM (active)

AC50 lookup needed for O=C(NNC(=O)C(c1ccccc1)c1ccccc1)c1ccccn1 , thanks. 5.11 µM (active)

====

# Target: Protein skinhead-1 (Caenorhabditis elegans)
# Sequence (P34707 whole entry): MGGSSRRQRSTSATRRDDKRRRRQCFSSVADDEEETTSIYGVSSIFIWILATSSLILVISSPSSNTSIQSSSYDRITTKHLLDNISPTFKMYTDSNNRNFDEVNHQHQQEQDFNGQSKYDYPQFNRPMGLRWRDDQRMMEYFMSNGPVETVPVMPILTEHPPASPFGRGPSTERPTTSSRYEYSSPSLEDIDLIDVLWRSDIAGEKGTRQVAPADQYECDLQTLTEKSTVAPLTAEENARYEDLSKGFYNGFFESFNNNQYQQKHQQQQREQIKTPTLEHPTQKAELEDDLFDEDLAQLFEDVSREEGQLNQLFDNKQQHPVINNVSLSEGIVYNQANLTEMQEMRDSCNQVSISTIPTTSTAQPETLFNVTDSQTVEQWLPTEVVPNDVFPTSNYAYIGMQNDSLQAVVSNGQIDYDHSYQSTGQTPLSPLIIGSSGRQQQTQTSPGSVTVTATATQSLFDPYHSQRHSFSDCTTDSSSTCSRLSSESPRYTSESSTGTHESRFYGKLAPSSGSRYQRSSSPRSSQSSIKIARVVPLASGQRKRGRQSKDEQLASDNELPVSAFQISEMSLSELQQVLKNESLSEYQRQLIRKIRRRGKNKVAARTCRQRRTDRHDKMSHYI
# Type: functional
Activity calls are given as the source filed them.
Field 'call' accepts active, inactive

>>> class_name("Clc1ccccc1-c1ncc(-c2ccccc2)o1")
"active"
>>> class_name("Cc1nn(-c2ccc(F)cc2)c2sc(C(=O)N3CCCCCC3)cc12")
"inactive"
>>> class_name("O=C(/C=C/Sc1ccccc1)c1ccc(Cl)cc1")
"active"
>>> class_name("O=c1c2ccccc2oc2ccc(Oc3ccccc3)cc12")
"active"
>>> class_name("CCCCOc1ccc(C(=O)NC)cc1")
"inactive"

Query: recorded result category for Fc1ccc(-n2nnc(-c3cccnc3Cl)n2)cc1 in this test active

# fetch the recorded call for O=[N+]([O-])c1cccc(-c2c(-c3ccccc3)ncc3cc(F)ccc23)c1 here inactive

Would you mind telling me which call this test gave COc1ccc(Br)cc1CN(C)CC(O)COc1ccc(Br)cc1 (stereo unspecified) ? inactive

Status in this test for COC(=O)C1=C(C)NC(=O)/C1=C\N(C)C ? inactive

I'd appreciate the recorded outcome for Cc1ccc(NC2=NC(=O)/C(=C\c3ccc(C)s3)S2)cc1 from this test. inactive

Outcome? O=C1/C(=C/c2cccs2)CCc2ccccc21 active
